system under test: human TLR9 (Homo sapiens, UniProt Q9NR96)
Sequence (Q9NR96 26-1032): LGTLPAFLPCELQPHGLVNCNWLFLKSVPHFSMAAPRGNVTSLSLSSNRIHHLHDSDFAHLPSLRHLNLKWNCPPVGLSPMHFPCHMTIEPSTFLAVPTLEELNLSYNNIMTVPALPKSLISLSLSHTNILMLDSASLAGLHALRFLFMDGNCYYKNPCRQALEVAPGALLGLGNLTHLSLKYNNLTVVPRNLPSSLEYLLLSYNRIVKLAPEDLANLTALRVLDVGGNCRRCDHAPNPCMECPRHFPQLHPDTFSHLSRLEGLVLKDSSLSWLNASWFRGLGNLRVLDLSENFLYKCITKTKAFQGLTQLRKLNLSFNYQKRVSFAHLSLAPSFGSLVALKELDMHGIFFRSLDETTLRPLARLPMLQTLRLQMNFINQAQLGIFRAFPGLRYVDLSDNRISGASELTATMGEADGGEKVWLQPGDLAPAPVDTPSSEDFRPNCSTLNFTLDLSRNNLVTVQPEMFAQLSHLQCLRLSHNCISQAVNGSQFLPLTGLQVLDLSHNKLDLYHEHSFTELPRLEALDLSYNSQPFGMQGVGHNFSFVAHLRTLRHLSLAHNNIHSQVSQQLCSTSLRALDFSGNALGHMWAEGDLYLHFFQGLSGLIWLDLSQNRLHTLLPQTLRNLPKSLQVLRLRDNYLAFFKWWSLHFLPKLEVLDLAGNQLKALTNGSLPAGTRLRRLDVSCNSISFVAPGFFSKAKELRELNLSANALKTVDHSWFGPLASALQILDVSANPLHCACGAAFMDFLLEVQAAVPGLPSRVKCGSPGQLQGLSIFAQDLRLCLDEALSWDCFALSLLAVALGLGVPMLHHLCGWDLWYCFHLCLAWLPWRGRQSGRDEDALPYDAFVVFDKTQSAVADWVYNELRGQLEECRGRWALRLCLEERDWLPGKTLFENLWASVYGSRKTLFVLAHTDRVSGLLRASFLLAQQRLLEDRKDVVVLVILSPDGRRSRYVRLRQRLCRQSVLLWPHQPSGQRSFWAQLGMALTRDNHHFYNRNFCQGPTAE
assay protocol: TLR9 inhibition reporter assay (HEK-Blue cells, SEAP reporter)
condition parameters: HEK-Blue cells overexpressing human TLR9; stimulated with ODN2006 5 nM; 22 hour incubation; SEAP readout
Categorize each record by its IC50 using low end (below 0.06 µM), middle (0.06 µM to below 0.2 µM), high end (0.2 µM or more)

>>> print(df.to_string())
                                   compound                         system_under_test  label_class
0  COc1ccc(-c2cn3cc(C4CCN(C5CCN(CC(C)C)CC5)CC4)ccc3n2)cc1OC [Example 12]  human TLR9 (Homo sapiens, UniProt Q9NR96)       middle
1  COc1ccc(-c2cn3c(n2)CCC(C2CCN(C4CCN(C(=O)C(C)C)CC4)CC2)C3)cc1OC (racemic) [Example 39]  human TLR9 (Homo sapiens, UniProt Q9NR96)       middle
2  Cc1cc(C2CCN(C3CC4CCC(C3)N4C(C)C)CC2)cn2cc(-c3ccc(S(C)(=O)=O)cc3)nc12 (single isomer, unassigned) [Example 63]  human TLR9 (Homo sapiens, UniProt Q9NR96)       middle

Exercise: Could you place COc1ccc(-c2nc3n(n2)CC(c2ccc(N4CC5CCC(C4)N5C(C)C)cc2)CC3C)cc1OC (centres unmarked) [Example 152] in its proper category? Many thanks.
Solution: high end

Exercise: What do you get for COc1ccc(-c2cn3cc(C4CCN(C5CCN(C6CC6)CC5)CC4)cc(C)c3n2)cc1OC [Example 1] ?
Solution: low end

Data provenance is patent US12486267B2.
